Biological target: NHERF4_3, Q86UT5
Sequence (Q86UT5 325-412): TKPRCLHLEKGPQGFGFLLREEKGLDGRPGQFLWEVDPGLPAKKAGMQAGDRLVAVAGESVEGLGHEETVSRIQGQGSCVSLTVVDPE
Test: holdup assay
Parameters: key: below the threshold = too weak to quantify, mostly under pKd 3.1 to 4
Settings: plain residues with an end cap or a label only (N-terminal biotin on a linker: ttds)
QUANTITY NAME: pKd

The examples below pair each entry with its known result.
[
  {
    "BINDER": "SVWLRKETRV [CYSLTR2, Q9NS75]",
    "pKd": "below the threshold"
  },
  {
    "BINDER": "QSARYRDTEL [TJP2, Q9UDY2]",
    "pKd": "below the threshold"
  },
  {
    "BINDER": "RSLEEEESQL [GRASP, Q7Z6J2]",
    "pKd": "below the threshold"
  },
  {
    "BINDER": "SRPQRTQTQV [HPV67-E6, A4U7F2]",
    "pKd": "below the threshold"
  }
]

[in] I am curious: what pKd value has been reported for SSRTRRETQL [HPV16-E6, P03126] ?
[out] 4.13
